System: CR3150 cell line (Large intestine/Colorectum)
Experimental protocol: CellTiter-Glo cell viability assay, CR3150
Format: cell-based
Conditions: Homo sapiens, 168 h, 7 days drug treatment
Description: All cell lines are hyman primary cell lines cultured in DMEM/F12+10% FBS+supplemental growth factors, at 37° C. with 5% C02, as explained below. […] 1. […] The number of cells to be seeded is determined on the basis of a Cell Density Optimization Assay. […] 5. […] Record luminescence using an EnVision Multi Label Reader. […]
Endpoint name: IC50 (nM)

Substance smiles	Target entity	Endpoint name	Recorded number
FC(F)(F)Oc1ccc(Nc2ccc3cccc(Cl)c3n2)cc1	CR3150 cell line (Large intestine/Colorectum)	IC50	870

* * *

System: CR3085 cell line (Large intestine/Colorectum)
Experimental protocol: CellTiter-Glo cell viability assay, CR3085
Assay type: cell-based
Conditions: Homo sapiens; cell line Large intestine/Colorectum CR3085; restated in text without unit

Molecule	IC50 [nM]
FC(F)(F)c1ccc(Nc2ccc3cccc(Cl)c3n2)nc1 [Comparative compound 26]	170

* * *

Test system: LI0612 cell line (Liver)
Experimental protocol: CellTiter-Glo cell viability assay, LI0612
Assay type: cell-based
Conditions: Homo sapiens, 168 h, 7 days drug treatment
pIC50: −log10 of the molar value.
Endpoint name: pIC50

Substance smiles	Target entity	Recorded number
FC(F)(F)Oc1ccc(Nc2ccc3cccc(Cl)c3n2)cc1	LI0612 cell line (Liver)	5.32

* * *

Test system: PA0692 cell line (Pancreas)
Experimental protocol: CellTiter-Glo cell viability assay, PA0692
Format: cell-based
Conditions: Homo sapiens, 168 h, 7 days drug treatment
Endpoint name: IC50 (µM)

Molecule	Recorded number
FC(F)(F)Oc1ccc(Nc2ccc3cccc(Cl)c3n2)cc1 [ABX464]	9.63
